System: Wolbachia pipientis
test-summary: Anti-Wolbachia Cell-Based Screen
Assay type: functional
Set-up: scale not given: in the data most compounds retested in dose-response had high values
measurement-parameters: 5 µM
About 13,000 (27%) of roughly 48,000 compounds showed an effect of 50% or more. Some of the results follow.
Percent Effect values, listed per item

{"columns": ["compound", "Percent Effect"],
 "data": [
  ["CNC(=O)c1cc2c(nc1NCC(C)C)CCN(S(=O)(=O)N(C)C)CC2", "-14.23%"],
  ["Cc1nc(-c2ccsc2)ccc1C(=O)O", "-6.285%"],
  ["CCC(C)NC(=O)c1ccc(CNC(=O)COC)cc1 (stereo unspecified)", "4.124%"],
  ["CC(C)C(C)NC(=O)Nc1cccn(C)c1=O (stereo unspecified)", "14.72%"],
  ["Cc1noc(-c2cccnc2N(C)Cc2cscn2)n1", "-2.045%"],
  ["CNC(=O)c1ccc(CNC(=O)c2ccc(Cl)cc2F)cc1", "6.561%"]
]}
